Origin of the recorded values: patent US12577217B2

IC50 listing for selected molecules.
targetEntity: recombinant human 15-PGDH (Homo sapiens, UniProt P15428)
Construct: purchased R&D Systems
measurementProtocol: 15-PGDH enzyme inhibition test
Format: biochemical
conditionDescription: 4 nM recombinant human 15-PGDH, 30 μM PGE2, 1 mM NAD+, 60 minutes after starting the reaction; read-out: IC50 Value

molecule | result
CC(O)CCN(C)C(=O)c1cnc2c(c1)OCCN2c1ccn2c(=O)n(C)nc2c1 (centres unmarked) | 10 to 100 nM
Cn1nc2cc(N3CCCc4cc([S+]([O-])C5CCCCC5)cnc43)ccn2c1=O (centres unmarked) | < 10 nM
Cn1nc2cc(N3CCOc4cc(C(=O)N5CCC(F)(F)CC5)sc43)ccn2c1=O | 10 to 100 nM
CS(=O)(=O)Cc1ccc(N2CCOc3cc(C(=O)N4CCCCC4)ccc32)cc1 | < 10 nM
Cn1nc2cc(N3CCOc4cc(C(=O)N5CCC(O)CC5)cnc43)ccn2c1=O | < 10 nM
O=C(O)Cc1ccc(N2CCOc3cc(C(=O)N4CCCCC4)ccc32)cc1 | < 10 nM

Endpoint output: IC50 of COCn1nc2cc(N3CCCc4cc(C(=O)N5CCC[C@H](CF)C5)cnc43)ccn2c1=O . Value?
< 10 nM

Similarly, O=C(O)c1ccc(N2CCCCOc3cc(C(=O)N4CCCCC4)cnc32)cc1 ?
< 10 nM

###

IC50 listing for selected compounds.
targetEntity: recombinant human 15-PGDH (Homo sapiens, UniProt P15428)
Construct: purchased R&D Systems
Sequence (P15428 1-266): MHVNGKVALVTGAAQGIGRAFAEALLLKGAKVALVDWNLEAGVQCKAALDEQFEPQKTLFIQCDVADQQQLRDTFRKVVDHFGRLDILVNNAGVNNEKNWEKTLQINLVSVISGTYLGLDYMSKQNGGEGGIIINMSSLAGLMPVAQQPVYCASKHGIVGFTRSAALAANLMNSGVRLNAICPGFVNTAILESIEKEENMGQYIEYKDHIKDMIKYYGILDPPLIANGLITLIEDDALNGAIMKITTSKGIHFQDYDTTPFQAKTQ
measurementProtocol: 15-PGDH enzyme inhibition test
Type: biochemical
conditionDescription: 4 nM recombinant human 15-PGDH, 30 μM PGE2, 1 mM NAD+, 60 minutes after starting the reaction; read-out: IC50 Value

// below: answered compounds
compound | targetEntity | attributeMeasured | result
CN1Cc2cc(N3CCCc4cc(C(=O)N5CCCCC5)cnc43)ccc2C1=O [Example 1-68] | recombinant human 15-PGDH (Homo sapiens, UniProt P15428) | IC50 | < 10 nM
Cn1nc2cc(N3CCOc4cc(C(=O)N5[C@@H]6CCC[C@H]5CC6)cnc43)ccn2c1=O [Example 8-56] | recombinant human 15-PGDH (Homo sapiens, UniProt P15428) | IC50 | < 10 nM
Cn1nc2cc(N3CCOc4cc(C(=O)N5CC6CCC6C5)cnc43)ccn2c1=O (centres unmarked) [Example 8-97] | recombinant human 15-PGDH (Homo sapiens, UniProt P15428) | IC50 | < 10 nM
CNC(=O)c1ccc(N2CCOc3cc(C(=O)N4CCCCC4)cnc32)cc1C [Example 6-12] | recombinant human 15-PGDH (Homo sapiens, UniProt P15428) | IC50 | > 100 nM
O=C(c1cnc2c(c1)OCCN2c1ccn2c(=O)n(CC(F)(F)F)nc2c1)N1CCC(F)(F)CC1 [Example 27-8] | recombinant human 15-PGDH (Homo sapiens, UniProt P15428) | IC50 | < 10 nM
CCOCn1nc2cc(N3CCOc4cc(C(=O)N5CCC(F)(F)CC5)cnc43)ccn2c1=O [Example 1-44] | recombinant human 15-PGDH (Homo sapiens, UniProt P15428) | IC50 | < 10 nM
Cn1nc2cc(N3CCOc4cc(C(=O)N5CCCCC5)cnc43)c(Cl)cn2c1=O [Example 1-270] | recombinant human 15-PGDH (Homo sapiens, UniProt P15428) | IC50 | > 100 nM

Read the next record carefully.
Endpoint output: IC50 of CCN1Cc2cc(N3CCCc4cc(C(=O)N5CCC5)cnc43)ccc2C1=O [Example 8-68] . Value?
< 10 nM
